- Test Protocol: Metabolic stability in human liver microsomes after 60 mins in presence of NADPH by UV/LC-MS analysis
- Format: ADME, microsome
- Measurement Setup: read-out: Stability
Reported Property: remaining at 1 h (%)
Answer with a number only, understood to be in %.

Field request: remaining at 1 h | item: CC(C)Sc1nc(Nc2cccc(O)c2)c2cnn(CC(Cl)c3ccccc3)c2n1 (configuration not stated)
93.5

Field request: remaining at 1 h | item: CSc1nc(Nc2cc(O)ccc2Cl)c2cnn(CC(C)c3ccccc3)c2n1 (configuration not stated)
92.7

Field request: remaining at 1 h | item: CC(Cn1ncc2c(Nc3cc(O)ccc3Cl)nc(SCCN3CCOCC3)nc21)c1ccccc1 (configuration not stated)
97.9

Field request: remaining at 1 h | item: CC(Cn1ncc2c(Nc3cccc(O)c3)nc(NCCO)nc21)c1ccccc1 (configuration not stated)
99.4

Field request: remaining at 1 h | item: CSc1nc(Nc2cc(O)ccc2Cl)c2cnn(CC(Cl)c3ccccc3)c2n1 (configuration not stated)
96.4

Field request: remaining at 1 h | item: CC(Cn1ncc2c(Nc3cccc(O)c3)nc(SCCN3CCOCC3)nc21)c1ccccc1 (configuration not stated)
99

Field request: remaining at 1 h | item: CC(Cn1ncc2c(Nc3cc(O)ccc3Cl)nc(NCCN)nc21)c1ccccc1 (configuration not stated)
98.4

Field request: remaining at 1 h | item: CC(Cn1ncc2c(Nc3cc(O)ccc3Cl)nc(NCCO)nc21)c1ccccc1 (configuration not stated)
97.9

Field request: remaining at 1 h | item: Oc1ccc(Cl)c(Nc2nc(SCCN3CCOCC3)nc3c2cnn3CC(Cl)c2ccccc2)c1 (configuration not stated)
96.9

Field request: remaining at 1 h | item: Oc1ccc(Cl)c(Nc2ncnc3c2cnn3CC(Cl)c2ccccc2)c1 (configuration not stated)
86.3

Field request: remaining at 1 h | item: OCCNc1nc(Nc2cc(O)ccc2Cl)c2cnn(CC(Cl)c3ccccc3)c2n1 (configuration not stated)
97.2

Field request: remaining at 1 h | item: Oc1cccc(Nc2nc(SCCN3CCOCC3)nc3c2cnn3CC(Cl)c2ccccc2)c1 (configuration not stated)
98.7

----------
- Test Protocol: Apparent permeability of the compound after 5 hrs by PAMPA
- Format: ADME
Please provide measured Papp at 5 h for the entries that follow.
Answer with a number only, understood to be in nm/s.

Field request: Papp at 5 h | item: CSc1nc(Nc2cc(O)ccc2Cl)c2cnn(CC(Cl)c3ccccc3)c2n1 (centres undefined)
32.3

Field request: Papp at 5 h | item: CC(Cn1ncc2c(Nc3cc(O)ccc3Cl)nc(SCCN3CCOCC3)nc21)c1ccccc1 (centres undefined)
112

Field request: Papp at 5 h | item: CC(Cn1ncc2c(Nc3cccc(O)c3)nc(SCCN3CCOCC3)nc21)c1ccccc1 (centres undefined)
68.1

Field request: Papp at 5 h | item: Oc1cccc(Nc2nc(SCCN3CCOCC3)nc3c2cnn3CC(Cl)c2ccccc2)c1 (centres undefined)
44.4

Field request: Papp at 5 h | item: CC(Cn1ncc2c(Nc3cc(O)ccc3Cl)nc(NCCN)nc21)c1ccccc1 (centres undefined)
22

Field request: Papp at 5 h | item: CC(Cn1ncc2c(Nc3cc(O)ccc3Cl)nc(NCCO)nc21)c1ccccc1 (centres undefined)
1

Field request: Papp at 5 h | item: Oc1ccc(Cl)c(Nc2ncnc3c2cnn3CC(Cl)c2ccccc2)c1 (centres undefined)
43.9

Field request: Papp at 5 h | item: CSc1nc(Nc2cc(O)ccc2Cl)c2cnn(CC(C)c3ccccc3)c2n1 (centres undefined)
83.3

Field request: Papp at 5 h | item: CC(Cn1ncc2c(Nc3cccc(O)c3)nc(NCCO)nc21)c1ccccc1 (centres undefined)
2
